Target: HoLaMa DNA polymerase (Klenow sub-fragment lacking the 3'-5' exonuclease domain)
Assay: intrinsic tryptophan fluorescence quenching titration
Conditions: 500 nM enzyme; n = 1.24 ± 0.03 DNA per enzyme; no dNTP; Kd titration: 50 mM sodium phosphate pH 8.0, 50 mM NaCl, temperature not stated in the material; stopped-flow: 50 mM Tris-HCl pH 8.0, 0.5 mM EDTA, 10 mM MgCl2 …
Measurement Kind: Kd (nM)
Numbers only, in nM.

Give the measured Kd of AAAAAAAAAAAAAAAAAAAAAAAAAAAAAAAAGCGCGCGC / GCGCGCGCTTTTTTT [40mer polyA DNA (40mer template / 15mer primer)] .
35.1
